All figures here come from patent US11433099B2.

Target: HLA-B*08:01 (Homo sapiens, UniProt P01889)
Assay: MHC binding assay (UV-ligand exchange, beta2m ELISA)
Settings: MHC class I binding score; binding to HLA-B*08:01 ranged by peptide exchange yield (UV-ligand exchange, β2m ELISA)
endpoint.name: Peptide exchange

substance	value
54 (DLSRRDVSL; listed as Homo sapiens) [compound 54]	++ (20% = ++)
227 (SRFPGMSVL; listed as Homo sapiens) [compound 227]	++ (20% = ++)
126 (TAAEARLSL; listed as Homo sapiens) [compound 126]	++ (20% = ++)
48 (ELALRQTV; listed as Homo sapiens) [compound 48]	++ (20% = ++)
26 (DARCKLAEL; listed as Homo sapiens) [compound 26]	++ (20% = ++)
148 (DVNPVSLQL; listed as Homo sapiens) [compound 148]	++ (20% = ++)
141 (AQLKLVAL; listed as Homo sapiens) [compound 141]	++ (20% = ++)
57 (MPLKHYLL; listed as Homo sapiens) [compound 57]	++ (20% = ++)
194 (RAIEHVLQV; listed as Homo sapiens) [compound 194]	+++ (50% = +++)
51 (ERRVKVSSL; listed as Homo sapiens) [compound 51]	+++ (50% = +++)
87 (QILQHHVL; listed as Homo sapiens) [compound 87]	+++ (50% = +++)
168 (HVQDFTAF; listed as Homo sapiens) [compound 168]	++ (20% = ++)
105 (APLKMLALV; listed as Homo sapiens) [compound 105]	++ (20% = ++)
250 (AARAPPQAL; listed as Homo sapiens) [compound 250]	++ (20% = ++)
206 (MEFPNKFNTL; listed as Homo sapiens) [compound 206]	++ (20% = ++)
184 (DRLKPLKM; listed as Homo sapiens) [compound 184]	++ (20% = ++)
137 (VQWKPPAL; listed as Homo sapiens) [compound 137]	++ (20% = ++)
156 (ILKEQSSSSF; listed as Homo sapiens) [compound 156]	++ (20% = ++)
67 (DMNTKRAIHTL; listed as Homo sapiens) [compound 67]	++ (20% = ++)
102 (IMKKIRESY; listed as Homo sapiens) [compound 102]	+++ (50% = +++)

====

Molecular target: HLA-B*08:01 (Homo sapiens, UniProt P01889)
Experiment: MHC binding assay (UV-ligand exchange, beta2m ELISA)
Settings: MHC class I binding score; binding to HLA-B*08:01 ranged by peptide exchange yield (UV-ligand exchange, β2m ELISA)

substance	target.or.test.system	Peptide exchange
40 (ESMLKTTL; listed as Homo sapiens) [compound 40]	HLA-B*08:01 (Homo sapiens, UniProt P01889)	++ (20% = ++)
133 (QATPRVRIL; listed as Homo sapiens) [compound 133]	HLA-B*08:01 (Homo sapiens, UniProt P01889)	++ (20% = ++)
164 (LPAPIPTLL; listed as Homo sapiens) [compound 164]	HLA-B*08:01 (Homo sapiens, UniProt P01889)	++ (20% = ++)
143 (DADLREQAL; listed as Homo sapiens) [compound 143]	HLA-B*08:01 (Homo sapiens, UniProt P01889)	++ (20% = ++)
207 (LRKRKSPE; listed as Homo sapiens) [compound 207]	HLA-B*08:01 (Homo sapiens, UniProt P01889)	++ (20% = ++)
117 (VGPNGFKSL; listed as Homo sapiens) [compound 117]	HLA-B*08:01 (Homo sapiens, UniProt P01889)	++ (20% = ++)
241 (NAYEAPSI; listed as Homo sapiens) [compound 241]	HLA-B*08:01 (Homo sapiens, UniProt P01889)	++ (20% = ++)
37 (EAFSRASL; listed as Homo sapiens) [compound 37]	HLA-B*08:01 (Homo sapiens, UniProt P01889)	++ (20% = ++)
